The origin of these recorded values is ChEMBL document CHEMBL5528063.

Assay: Cytotoxicity against human BJ cells assessed as inhibition of cell growth incubated for 72 hrs by CellTiter-Glo luminescence assay
Format: toxicity, cell-based
metric: EC50 at 72 h

>  <smiles-input>
O=C(Nc1ccc(Cl)c(-c2nc3ncccc3o2)c1)c1cc([N+](=O)[O-])ccc1Cl

>  <metric>
EC50 at 72 h

>  <result>
> 26 µM

$$$$
>  <smiles-input>
Cc1ccc(-c2nc3ccccc3s2)cc1NC(=O)c1cnccc1F

>  <metric>
EC50 at 72 h

>  <result>
> 18 µM

$$$$
>  <smiles-input>
O=C(Nc1cccc(-c2ncc[nH]2)c1)c1cc([N+](=O)[O-])ccc1Cl

>  <metric>
EC50 at 72 h

>  <result>
> 18 µM

$$$$
>  <smiles-input>
Cc1ccc(-c2nc3ccccc3s2)cc1NC(=O)c1cc(N)ccc1Cl

>  <metric>
EC50 at 72 h

>  <result>
> 15 µM

$$$$
>  <smiles-input>
Cc1ccc(-c2nc3ccccc3s2)cc1NC(=O)c1cc([N+](=O)[O-])ccc1O

>  <metric>
EC50 at 72 h

>  <result>
> 14 µM

$$$$
>  <smiles-input>
COc1ccncc1C(=O)Nc1cc(-c2nc3ccccc3s2)ccc1C

>  <metric>
EC50 at 72 h

>  <result>
> 21 µM

$$$$
>  <smiles-input>
Cc1ccc(-c2nc3ccccc3s2)cc1NC(=O)c1cc([N+](=O)[O-])c(N2CCN(C)CC2)cc1Cl

>  <metric>
EC50 at 72 h

>  <result>
> 25 µM

$$$$
>  <smiles-input>
Cc1ccc(-c2nc3ccccc3s2)cc1NC(=O)c1cc([N+](=O)[O-])ccc1C(F)(F)F

>  <metric>
EC50 at 72 h

>  <result>
> 15 µM

$$$$
>  <smiles-input>
Cc1ccc(-c2nc3ccccc3s2)cc1NC(=O)c1cnccc1Cl

>  <metric>
EC50 at 72 h

>  <result>
> 25 µM

$$$$
>  <smiles-input>
Cc1ccc(-c2nc3ccccc3s2)cc1NC(=O)c1cc(F)ccc1Cl

>  <metric>
EC50 at 72 h

>  <result>
> 15 µM

$$$$
>  <smiles-input>
O=C(Nc1cccc(-c2nc3ccccc3s2)n1)c1cnccc1Cl

>  <metric>
EC50 at 72 h

>  <result>
> 15 µM

$$$$
>  <smiles-input>
Cc1ccc(-c2nc3ccccc3s2)cc1NC(=O)c1cc(C(N)=O)ccc1Cl

>  <metric>
EC50 at 72 h

>  <result>
> 22 µM

$$$$
>  <smiles-input>
O=C(Nc1cc(-c2nc3ccccc3s2)ccc1Br)c1cc([N+](=O)[O-])ccc1Cl

>  <metric>
EC50 at 72 h

>  <result>
> 20 µM

$$$$
>  <smiles-input>
O=C(Nc1cccc(-c2nc3ccccc3s2)n1)c1cc([N+](=O)[O-])ccc1Cl

>  <metric>
EC50 at 72 h

>  <result>
> 15 µM

$$$$
>  <smiles-input>
COc1ccc([N+](=O)[O-])cc1C(=O)Nc1cc(-c2nc3ccccc3s2)ccc1C

>  <metric>
EC50 at 72 h

>  <result>
> 2 µM

$$$$
>  <smiles-input>
O=C(Nc1cncc(-c2nc3ccccc3s2)c1)c1cnccc1Cl

>  <metric>
EC50 at 72 h

>  <result>
> 11 µM

$$$$
>  <smiles-input>
COC(=O)c1ccc(Cl)c(C(=O)Nc2cc(-c3nc4ccccc4s3)ccc2C)c1

>  <metric>
EC50 at 72 h

>  <result>
> 28 µM

$$$$
>  <smiles-input>
O=C(Nc1cncc(-c2nc3ccccc3s2)c1)c1cc([N+](=O)[O-])ccc1Cl

>  <metric>
EC50 at 72 h

>  <result>
> 15 µM

$$$$
>  <smiles-input>
Cc1ccc(-c2nc3ccccc3s2)cc1NC(=O)c1cnccc1O

>  <metric>
EC50 at 72 h

>  <result>
> 14 µM

$$$$
>  <smiles-input>
O=C(Nc1cccc(-c2nccs2)n1)c1cnccc1Cl

>  <metric>
EC50 at 72 h

>  <result>
> 18 µM

$$$$
>  <smiles-input>
CC(=O)Nc1ccc(Cl)c(C(=O)Nc2cc(-c3nc4ccccc4s3)ccc2C)c1

>  <metric>
EC50 at 72 h

>  <result>
> 15 µM

$$$$
